Catalogue of Activity values
Molecular target: Plasminogen (Homo sapiens) (UniProt P00747)
Sequence (P00747 97-580 limits assumed): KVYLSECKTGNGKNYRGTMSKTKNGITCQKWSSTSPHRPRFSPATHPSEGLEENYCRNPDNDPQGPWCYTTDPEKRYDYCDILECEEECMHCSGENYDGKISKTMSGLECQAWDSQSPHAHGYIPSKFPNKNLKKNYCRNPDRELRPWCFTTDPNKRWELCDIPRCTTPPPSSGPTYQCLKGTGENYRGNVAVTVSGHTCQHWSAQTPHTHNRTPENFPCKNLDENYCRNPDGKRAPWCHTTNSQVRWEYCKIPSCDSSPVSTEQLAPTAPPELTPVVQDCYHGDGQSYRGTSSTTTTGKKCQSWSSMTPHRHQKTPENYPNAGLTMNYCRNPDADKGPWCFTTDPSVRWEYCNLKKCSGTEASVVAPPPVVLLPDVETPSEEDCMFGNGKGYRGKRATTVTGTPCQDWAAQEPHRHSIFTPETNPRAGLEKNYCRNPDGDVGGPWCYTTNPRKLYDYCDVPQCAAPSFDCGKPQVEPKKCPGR
Sequence (P00747 581-810 limits assumed): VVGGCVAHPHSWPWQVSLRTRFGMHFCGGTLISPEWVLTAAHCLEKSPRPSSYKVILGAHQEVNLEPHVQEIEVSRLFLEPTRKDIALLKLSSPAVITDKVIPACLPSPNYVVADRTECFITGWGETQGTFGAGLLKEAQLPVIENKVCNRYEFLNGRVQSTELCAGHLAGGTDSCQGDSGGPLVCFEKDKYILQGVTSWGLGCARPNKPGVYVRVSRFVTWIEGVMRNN
Experiment: Inhibition of plasmin assessed as residual proteolytic activity at 0.5 mM
Peptide text beside a SMILES is read from it.
Returns: string containing the number followed by the unit.

{"MOLECULE": "CSCC[C@H](NC(=O)[C@H](CCSC)NC(=O)[C@@H]1CCCN1)C(=O)NCC(=O)N[C@@H](CCCCN)C(=O)N[C@@H](C)C(=O)N[C@@H](CO)C(=O)N1CCC[C@H]1C(=O)N[C@H](C(=O)CCl)C(C)C (HELM PEPTIDE1{P.M.M.G.K.A.S.P.V.[ClC[*:1]]}$$$$V2.0)", "TARGET UNDER TEST": "Plasminogen (Homo sapiens) (UniProt P00747)", "ASSAY METRIC": "Activity", "MEASUREMENT": "71%"}

In the following, a different molecule is considered.
Reported Activity, molecule CC[C@H](C)[C@H](N)C(=O)N[C@@H](Cc1c[nH]c2ccccc12)C(=O)N[C@@H](CC(N)=O)C(=O)N[C@H](C(=O)N[C@@H](CC(C)C)C(=O)N[C@@H](CC(N)=O)C(=O)N[C@@H](CO)C(=O)NCC(=O)N[C@@H](CCCNC(=N)N)C(=O)N[C@H](C(=O)N[C@H](C(=O)N1CCC[C@H]1C(=O)NCC(=O)N[C@H](C(=O)NCC(=O)N[C@@H](Cc1cnc[nH]1)C(=O)N[C@@H](C)C(=O)CCl)[C@@H](C)O)C(C)C)C(C)C)[C@@H](C)O (HELM PEPTIDE1{I.W.N.T.L.N.S.G.R.V.V.P.G.T.G.H.A.[ClC[*:1]]}$$$$V2.0) : ____
74%

Recorded values, source ChEMBL document CHEMBL1153316.
